Test: Inhibition of TNFalpha-induced NF-kB (unknown origin) activation expressed in human NCI-H460 cells after 7 hrs by luciferase reporter gene assay
Format: cell-based
Conditions: NCI-H460, 7 h
Reported Endpoint: IC50 (µM)

Smiles String: C[C@H]1[C@H](C)CC[C@]2(C(=O)OCC(=O)Nc3ccccc3)CC[C@]3(C)C(=CC[C@@H]4[C@@]5(C)CCC(=O)C(C)(C)[C@@H]5CC[C@]43C)[C@H]12
Reported Endpoint: IC50
Reading: 10.3
//
Smiles String: Cc1ccc(NC(=O)COC(=O)[C@]23CC[C@@H](C)[C@H](C)[C@H]2C2=CC[C@@H]4[C@@]5(C)CCC(=O)C(C)(C)[C@@H]5CC[C@@]4(C)[C@]2(C)CC3)cc1
Reported Endpoint: IC50
Reading: 8.04
//
Smiles String: COc1ccc(NC(=O)[C@]23CC[C@@H](C)[C@H](C)[C@H]2C2=CC[C@@H]4[C@@]5(C)CC[C@H](OC(C)=O)C(C)(C)[C@@H]5CC[C@@]4(C)[C@]2(C)CC3)cc1OC
Reported Endpoint: IC50
Reading: 10.1
